- System: HUVEC
- ASSAY: HUVEC growth inhibition assay (crystal violet)
- Format: cell-based
- CONDITION DESCRIPTION: Homo sapiens; HUVEC proliferation; read-out: IC50 (drug concentration causing 50% inhibition)
ENDPOINT: pIC50
In textbook form, pIC50 equals minus log to base ten of the concentration in mol/L.

Tell me pIC50 of CCCCCCCCC1=C(CCCCCCCC(=O)O)C1 when tested on HUVEC.
4.73

====

# CONC. (μM): lowest concentration required to maintain full cell viability against 7KCh per entry
- System: ARPE-19 cells
- ASSAY: Fatty acids against 7KCh-mediated cell death (CCK8)
- Format: cell-based
- CONDITION DESCRIPTION: 12 μM 7KCh for 24 hr; tested 0.1, 0.5, 1, 5 and 10 μM
Answer in µM, number only, no unit symbol.

>>> value("CCCCCCCC[C@@H]1C[C@@H]1CCCCCCCC(=O)O [dihydrosterculic acid, Dihydrosterculic acid]")
10

Please report the measured CONC. (μM): lowest concentration required to maintain full cell viability against 7KCh for CCCCCCCCC1=C(CCCCCCCC(=O)O)C1
1

Please report the measured CONC. (μM): lowest concentration required to maintain full cell viability against 7KCh for CC/C=C\C/C=C\C/C=C\C/C=C\C/C=C\C/C=C\CCC(=O)O
5

Please report the measured CONC. (μM): lowest concentration required to maintain full cell viability against 7KCh for CCCCC/C=C\C/C=C\C/C=C\C/C=C\CCCC(=O)O
10

Please report the measured CONC. (μM): lowest concentration required to maintain full cell viability against 7KCh for CCCCC/C=C\C/C=C\CCCCCCCC(=O)O
5

Please report the measured CONC. (μM): lowest concentration required to maintain full cell viability against 7KCh for CCCCCCCC/C=C\CCCCCCCC(=O)O
10

Please report the measured CONC. (μM): lowest concentration required to maintain full cell viability against 7KCh for CC/C=C\C/C=C\C/C=C\CCCCCCCC(=O)O
5
